Assignment: determine reported IC50 for the given compounds.
target.of.assay: FGFR2 (Homo sapiens)
Sequence (P21802 399-821 limits assumed): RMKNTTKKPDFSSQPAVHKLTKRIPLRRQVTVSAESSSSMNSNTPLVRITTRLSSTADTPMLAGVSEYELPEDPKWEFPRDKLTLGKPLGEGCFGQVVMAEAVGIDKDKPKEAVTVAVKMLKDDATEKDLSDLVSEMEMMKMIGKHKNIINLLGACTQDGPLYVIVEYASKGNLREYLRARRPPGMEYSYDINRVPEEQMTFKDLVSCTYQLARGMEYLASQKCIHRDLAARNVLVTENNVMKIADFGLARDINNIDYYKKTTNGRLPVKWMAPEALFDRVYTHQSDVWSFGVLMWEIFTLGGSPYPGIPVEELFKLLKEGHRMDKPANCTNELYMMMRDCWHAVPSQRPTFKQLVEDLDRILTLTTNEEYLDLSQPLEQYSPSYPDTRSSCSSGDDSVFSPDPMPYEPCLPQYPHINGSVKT
assay.comment: FGFR wild type enzyme assay (HTRF KinEASE-TK), FGFR2
condition.label: Enz FGFR2 (nM), FGFR2 wild type enzyme assay
Write down the numeric answer in nM and omit the unit.

Query string: Give its IC50 value. Item: C[C@@H](O)CCn1cc(-c2cc(Sc3ccccc3C#N)c3c(C#N)cnn3c2)cn1
Result string: 1

Query string: Give its IC50 value. Item: Cn1ccc(Cn2cc(-c3cc(Sc4ccccc4C#N)c4c(C#N)cnn4c3)cn2)n1
Result string: 0.6

Query string: Give its IC50 value. Item: Cc1c(-c2cc(Sc3ccc(F)cc3C#N)c3c(C#N)cnn3c2)cnn1[C@H]1CNC(C)(C)C1
Result string: 2

Query string: Give its IC50 value. Item: Cc1nn([C@H]2CCCNC2)cc1-c1cc(Sc2ccc(F)cc2C#N)c2c(C#N)cnn2c1
Result string: 7

Query string: Give its IC50 value. Item: N#Cc1ccccc1Sc1cc(-c2cnn(C3CCOC3)c2)cn2ncc(C#N)c12 (centres unmarked)
Result string: 1

Query string: Give its IC50 value. Item: N#Cc1cnn2cc(-c3cn([C@H]4CCCNC4)nc3F)cc(Sc3ncccc3F)c12
Result string: 7

Query string: Give its IC50 value. Item: N#Cc1cnn2cc(-c3ccc(N4CC[C@@H](O)C4)nc3)cc(Sc3ncccc3F)c12
Result string: 2

Query string: Give its IC50 value. Item: Cc1cc(Sc2cc(-c3cnn(C4CCN(C)CC4)c3C)cn3ncc(C#N)c23)c(C#N)cc1F
Result string: 5

Query string: Give its IC50 value. Item: N#Cc1ccccc1Sc1cc(-c2cnn(CCC(=O)N3CC[C@@H](O)C3)c2)cn2ncc(C#N)c12
Result string: 0.2

Query string: Give its IC50 value. Item: Cc1nc(Sc2cc(-c3cnn(C)c3)cn3ncc(C#N)c23)c(F)cc1F
Result string: 2

Query string: Give its IC50 value. Item: CC(=O)N[C@H]1CC[C@H](n2cc(-c3cc(Sc4ccccc4C#N)c4c(C#N)cnn4c3)cn2)CC1
Result string: 1

Query string: Give its IC50 value. Item: Cc1c(-c2cc(Sc3ccc(F)cc3C#N)c3c(C#N)cnn3c2)cnn1C1CCOC1 (centres unmarked)
Result string: 3

Query string: Give its IC50 value. Item: N#Cc1ccccc1Sc1cc(-c2cnn([C@H]3CCCNC3)n2)cn2ncc(C#N)c12
Result string: 6

Query string: Give its IC50 value. Item: C[C@@H]1CN(c2ccc(-c3cc(Sc4ccccc4C#N)c4c(C#N)cnn4c3)cn2)C[C@H](C)O1
Result string: 1

Query string: Give its IC50 value. Item: N#Cc1ccccc1Sc1cc(-c2cnn([C@H]3CCC(=O)NC3)c2)cn2ncc(C#N)c12
Result string: 1

Query string: Give its IC50 value. Item: Cc1c(-c2cc(Sc3cccc(Cl)c3C#N)c3c(C#N)cnn3c2)cnn1C1CCN(C)CC1
Result string: 1.5

Query string: Give its IC50 value. Item: CO[C@H](C)C(=O)N1CCC(n2cc(-c3cc(Sc4ccccc4C#N)c4c(C#N)cnn4c3)cn2)CC1
Result string: 0.5

Query string: Give its IC50 value. Item: N#Cc1ccccc1Sc1cc(-c2cnn([C@H]3CCCNC3)c2F)cn2ncc(C#N)c12
Result string: 1

Query string: Give its IC50 value. Item: N#Cc1cnn2cc(-c3ccc(N4CCC(O)CC4)nc3)cc(Sc3ncccc3F)c12
Result string: 1

Query string: Give its IC50 value. Item: CC(=O)N1CCC(n2ncc(-c3cc(Sc4ccccc4C#N)c4c(C#N)cnn4c3)c2C)CC1
Result string: 1

* * *

target.of.assay: UniProt P21802
assay.comment: FGFR wild type enzyme assay (HTRF KinEASE-TK), FGFR2
condition.label: Enz FGFR2 (nM), FGFR2 wild type enzyme
Assignment: determine reported log10 IC50 for the given compounds.
A difference of one corresponds to tenfold IC50; all values are log10 with IC50 in nM.

Query string: Give its log10 IC50 value. Item: Cc1c(-c2cc(Sc3ccccc3C#N)c3c(C#N)cnn3c2)cnn1[C@H]1CC[C@](C)(O)CC1 [Example 261]
Result string: -0.30

Query string: Give its log10 IC50 value. Item: CC(=O)N1CCC2(CC1)CC(n1ncc(-c3cc(Sc4ncccc4F)c4c(C#N)cnn4c3)c1C)C2 [Example 176]
Result string: 0.18

Query string: Give its log10 IC50 value. Item: Cc1c(-c2cc(Sc3ncccc3F)c3c(C#N)cnn3c2)cnn1[C@H]1CC[C@@H](NCc2ccccn2)CC1 [Example 270]
Result string: -0.15

Query string: Give its log10 IC50 value. Item: Cc1c(-c2cc(Sc3ncccc3F)c3c(C#N)cnn3c2)cnn1C1CCN(Cc2ccccn2)CC1 [Example 240]
Result string: 0.30

Query string: Give its log10 IC50 value. Item: Cc1c(-c2cc(Sc3ncccc3F)c3c(C#N)cnn3c2)cnn1[C@H]1CC[C@@](C)(N)CC1 [Example 282]
Result string: 0.00

Query string: Give its log10 IC50 value. Item: CN[C@H]1CC[C@@H](n2ncc(-c3cc(Sc4ccc(F)cc4C#N)c4c(C#N)cnn4c3)c2C)CC1 [Example 255]
Result string: -0.52

Query string: Give its log10 IC50 value. Item: CC(=O)N1CCO[C@H](Cn2ncc(-c3cc(Sc4ncccc4F)c4c(C#N)cnn4c3)c2C)C1 [Example 234]
Result string: 0.70

Query string: Give its log10 IC50 value. Item: N#Cc1cnn2cc(-c3cnn4c3CNCC4)cc(Sc3ncccc3F)c12 [Example 183]
Result string: 0.90

Where these numbers come from: patent US20240270741A1
